B1: LINE1-mini (parent)
chain: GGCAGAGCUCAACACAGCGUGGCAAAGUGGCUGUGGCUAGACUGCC

variants of: B1; assay: self-cleavage, relative activity (ratio to wild type); higher = more cleavage; in vitro, sequencing; the parent is a self-cleaving ribozyme
Recorded self-cleavage values for a group of variants are listed next.
REPORTED METRIC: self-cleavage

> print(dat)
                              chain.sequence  recorded.result
 1  GGCAGAGCUCGAGACAGCGUGGCAAAGUGGCUGUGGCUAGACUGCC [A11G C13G]             0.02
 2  GGCAGAGCUCCACACAGCGUGGCAAAGUGGCUGUGGCUAGAGUGCC [A11C C42G]             0.03
 3  GACAGAGCUCAACACAGCGUGGCAAAGUGGCUGUGUCUAGACUGCC [G2A G36U]             0.19
 4  GGCAGACCUCAACACAGCGUGGCAAAGUAGCUGUGGCUAGACUGCC [G7C G29A]             0.13
 5  GGCAGAGCUGAACACAGCGUGGCAAAGUGGCUGUGGCUGGACUGCC [C10G A39G]             0.03
 6  GGCAGAGCUCAACACAGCCUGGCACAGUGGCUGUGGCUAGACUGCC [G19C A25C]              0.5
 7  GGCAGAGCUCAACACAGCGUGGCUAAGUGGCUGUGGCUAGGCUGCC [A24U A41G]             0.52
 8  GGCAGAGCUCAACAGAGCGUGGCAAAGUGGCUGAGGCUAGACUGCC [C15G U34A]             0.52
 9  GGCAGAGCUCAACACAGCGUGGCAAAGUGGCUGUGCCUAGAUUGCC [G36C C42U]             0.09
10  GGCAGAGCUCAAUCCAGCGUGGCAAAGUGGCUGUGGCUAGACUGCC [C13U A14C]             0.09
11  GGCAGAGUUCAACACAGCGUGGCAAAGUGGCUGUGGCUAGACUGCC [C8U]             0.29
12  GGCAGAGCUCACCACAGCGUGGCAAAGUGGCUGUGGCUAGACUUCC [A12C G44U]             0.03
13  GGCAGAGCUCAACACAGCGUGGCAAAGUGGCUGGGGCUUGACUGCC [U34G A39U]             0.09
14  UGCAGAGCUUAACACAGCGUGGCAAAGUGGCUGUGGCUAGACUGCC [G1U C10U]             0.08
15  GGCAGAGCUCAACACAGCGUGGCAAAGUGGAUGUGGCUAGACUGUC [C31A C45U]             0.13
16  GGCGGAGCUCAACACAGCGUGGCGAAGUGGCUGUGGCUAGACUGCC [A4G A24G]             1.09
17  GGCGGAGCUCAACACAGCGUUGCAAAGUGGCUGUGGCUAGACUGCC [A4G G21U]             0.68
18  GGCAGAGCUCACCACAGCGUGGCAAAGUGGCUGUGGCUAGAGUGCC [A12C C42G]             0.02
19  GGCAGAGCUCAACACAGCGUGGCAAAUUGCCUGUGGCUAGACUGCC [G27U G30C]             1.79
20  GGCAGAGCUCAACACAGCGCGGCAAAGUGGCUGUAGCUAGACUGCC [U20C G35A]              0.1
21  GGCAGGGCUGAACACAGCGUGGCAAAGUGGCUGUGGCUAGACUGCC [A6G C10G]             0.02
22  GGCAGAGCUCAACACAGCGGGGCAAAGGGGCUGUGGCUAGACUGCC [U20G U28G]             0.51
23  GGCAGAGCUCAACACAGCGUGGUAAAGUGGCUGAGGCUAGACUGCC [C23U U34A]             0.28
24  GGGAGAGCUCAACAGAGCGUGGCAAAGUGGCUGUGGCUAGACUGCC [C3G C15G]             0.04
25  GGCAGAGCUCCACACAGCGUGGCAAAGUGGCUGUGGCUAGACUGCA [A11C C46A]             0.03
26  GGCAGAGCUCAACACAGCGUGGCAAAGUGGCUGUGACUAGACUACC [G36A G44A]             0.43
27  UGCAGAGCUCAACACAGCGUCGCAAAGUGGCUGUGGCUAGACUGCC [G1U G21C]             0.39
28  GGCAGAGCUCAACACAGAGUGGCAAUGUGGCUGUGGCUAGACUGCC [C18A A26U]             0.69
29  GUCAGAGCUCAACACAGCGUGGCAAAGUGGCCGUGGCUAGACUGCC [G2U U32C]             0.03
30  GGCAGAGCUCAACGCAGCGUGGCAAAGUGGCUGUGGCUAGAGUGCC [A14G C42G]             0.04
31  GGCAGUGCUCAACACAGCGUAGCAAAGUGGCUGUGGCUAGACUGCC [A6U G21A]             2.16
32  GGCAGAUCUCAACACAGCGUGGCAAAGUGGCUGUCGCUAGACUGCC [G7U G35C]             0.08
33  GGCAGCGCUCAACACAGCGUGGCAAAGUGCCUGUGGCUAGACUGCC [A6C G30C]              0.2
34  GGCCGAGCUCAACACAGCGUGGCAAAGUGGCUGUGGCUUGACUGCC [A4C A39U]             0.09
35  GGCAGAGCUCAACACAGCGUGGGAAAGUGGCUGUUGCUAGACUGCC [C23G G35U]             0.11
36  GGCAGAGCUCAACACAGAGAGGCAAAGUGGCUGUGGCUAGACUGCC [C18A U20A]             0.29
37  GGCAGAGCUCAACUCAGCGUGGCAAAGUGGGUGUGGCUAGACUGCC [A14U C31G]             0.04
38  GGCAGAGCUCUACACAGCGUGGCAAAGUGGCUGUUGCUAGACUGCC [A11U G35U]             0.02
39  GGCAGAGCUCUACACAGCGUGGCACAGUGGCUGUGGCUAGACUGCC [A11U A25C]             0.11
40  GGAAGAGCUCAACACAGCGUGGGAAAGUGGCUGUGGCUAGACUGCC [C3A C23G]             0.45
41  GGCAGAGCUCAACACAGAGUGGCAAAGUGGGUGUGGCUAGACUGCC [C18A C31G]             0.04
42  GCCAGAGCUCAACAAAGCGUGGCAAAGUGGCUGUGGCUAGACUGCC [G2C C15A]             0.06
43  GGCAGAGCUCGACACCGCGUGGCAAAGUGGCUGUGGCUAGACUGCC [A11G A16C]             0.02
44  GGCAGAGCUCAACACAGUGUGGCAAAGUGGCUGUGGCUUGACUGCC [C18U A39U]             0.78
45  GGCAGAGCUCAACACAGCGUGGCAAAGUGCCUGUGGCUAGACUUCC [G30C G44U]             0.09
46  GGCAGAGCUCAACACAGCGUGGCAAAGUGGUUGAGGCUAGACUGCC [C31U U34A]             0.06

Sourced from the RNAGym collection of RNA variant scans (doi:10.7554/elife.90254)
